Target: cyclin B/CDK1 enzyme (Homo sapiens, UniProt P06493)
Construct: purchased New England BioLabs; host or cells: Sf9 insect cells, recombinant baculovirus
Sequence (P06493 whole entry): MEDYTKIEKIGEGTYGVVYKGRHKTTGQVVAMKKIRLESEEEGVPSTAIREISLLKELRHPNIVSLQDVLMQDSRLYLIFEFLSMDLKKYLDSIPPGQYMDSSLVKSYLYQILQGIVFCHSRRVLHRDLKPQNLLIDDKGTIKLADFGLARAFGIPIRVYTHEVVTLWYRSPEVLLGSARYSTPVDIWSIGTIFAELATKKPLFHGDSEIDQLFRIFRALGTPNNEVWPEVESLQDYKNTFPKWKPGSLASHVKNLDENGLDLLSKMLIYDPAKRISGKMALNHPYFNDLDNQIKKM
Sequence (P14635 whole entry partner): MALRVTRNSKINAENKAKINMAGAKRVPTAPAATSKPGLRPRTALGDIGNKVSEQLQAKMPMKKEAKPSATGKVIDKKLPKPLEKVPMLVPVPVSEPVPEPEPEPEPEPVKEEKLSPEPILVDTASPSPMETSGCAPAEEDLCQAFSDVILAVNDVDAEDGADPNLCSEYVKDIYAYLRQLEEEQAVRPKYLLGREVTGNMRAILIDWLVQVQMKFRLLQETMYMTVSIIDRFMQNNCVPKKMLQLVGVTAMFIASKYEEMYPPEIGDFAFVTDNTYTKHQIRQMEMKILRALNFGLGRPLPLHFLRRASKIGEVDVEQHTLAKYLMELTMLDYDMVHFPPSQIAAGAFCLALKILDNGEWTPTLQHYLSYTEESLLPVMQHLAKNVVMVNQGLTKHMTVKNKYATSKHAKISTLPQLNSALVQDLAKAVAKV
Experiment: CDK1 ELISA kinase assay (phospho-Rb ser 795 detection)
Format: biochemical
Details: In Vitro Enzyme Assays, read-out: CDK1 IC50
pIC50: −log10 of the molar value.
RESULT_TYPE: pIC50

What does the data say about its pIC50? Entry: `CC(=O)Nc1ccc(CN/C=C2\C(=O)NC(=O)c3ccc(Br)cc32)cc1OC(C)=O`
< 4.30

Moving on to `C[C@@H]1CN(c2ccc(N/C=C3\C(=O)NC(=O)c4ccc(-c5ccoc5)cc43)cc2F)C[C@H](C)N1`
< 4.30

Moving on to `O=C1NC(=O)c2ccc(I)cc2/C1=C/Nc1ccc(CN2CCOCC2)cc1`
< 4.30

Moving on to `CN(C)Cc1ccc(N/C=C2\C(=O)NC(=O)c3ccc(Br)cc32)cc1`
4.36

Moving on to `CC(=O)Nc1cc(CN/C=C2\C(=O)NC(=O)c3ccc(Br)cc32)cc(O)c1O`
< 4.30

Moving on to `CCN(CC)CCCCN/C=C1\C(=O)NC(=O)c2ccc(Br)cc21`
< 4.30

Moving on to `O=C1NC(=O)c2ccc(/C=C/CCCCl)cc2/C1=C/Nc1ccc(CN2CCCCC2)cc1`
5.42

Moving on to `O=C1NC(=O)c2ccc(-c3ccc(Cl)cc3)cc2/C1=C/Nc1ccc(CN2CCCCC2)cc1`
< 4.30

Moving on to COc1ccc(-c2ccc3c(c2)/C(=C/Nc2ccc(CN4CCCC4C)cc2)C(=O)NC3=O)cc1 (stereo not drawn)
4.45

Moving on to `C=CC(=O)Nc1ccc(CN/C=C2\C(=O)NC(=O)c3ccc(I)cc32)cc1O`
5.54

Moving on to `COc1cc(CN/C=C2\C(=O)NC(=O)c3ccc(Br)cc32)cc(O)c1OC`
< 4.30

Moving on to `Nc1ccc(CN/C=C2\C(=O)NC(=O)c3ccc(I)cc32)cc1O`
4.79

Moving on to `C[C@@H]1CN(c2ccc(N/C=C3\C(=O)NC(=O)c4ccc(I)cc43)cc2)C[C@H](C)N1C`
< 4.30

Moving on to `O=C1NC(=O)c2ccc(Br)cc2/C1=C/Nc1ccc(CN2CCOCC2)cc1`
< 4.30

Moving on to `O=C1NC(=O)c2ccccc2/C1=C\c1ccc(O)cc1`
< 4.43

Moving on to `COc1ccc(CN/C=C2\C(=O)NC(=O)c3ccc(-c4cn[nH]c4)cc32)cc1O`
5.40

Moving on to `O=C1NC(=O)c2ccc(-c3ccco3)cc2C1=CNc1ccc(CN2CCCC2)cc1`
< 4.30

Moving on to `O=C1NC(=O)c2ccccc2/C1=C/Nc1ccc(CN2CCCCCC2)cc1`
< 4.57

Moving on to `O=C1NC(=O)c2ccc(I)cc2/C1=C/Nc1ccc(CN2CCCC2)cc1`
< 4.30

Moving on to `CCN1CCN(c2ccc(N/C=C3\C(=O)NC(=O)c4ccc(-c5ccoc5)cc43)cn2)CC1`
< 4.30

Moving on to `C[C@@H]1CN(c2ccc(N/C=C3\C(=O)NC(=O)c4ccc(-c5ccc(F)cc5)cc43)cc2F)C[C@H](C)N1`
4.50

Moving on to O=C1NC(=O)c2ccc(-c3ccsc3)cc2/C1=C/Nc1ccc(CN2CCC[C@@H]2CO)cc1 (stereo in doubt)
< 4.30

Moving on to CN1CCC(Oc2ccc(N/C=C3\C(=O)NC(=O)c4ccc(Br)cc43)cc2)C1 (stereo not drawn)
< 4.30

Moving on to CN1CCN(C2CCC(NC=C3C(=O)NC(=O)c4ccc(I)cc43)CC2)CC1 (stereo not drawn)
< 4.30

Moving on to CN1CCC(N(C)c2ccc(N/C=C3\C(=O)NC(=O)c4ccc(Br)cc43)cc2)C1 (stereo not drawn)
< 4.30

Moving on to `CN1CCN(c2ccc(N/C=C3\C(=O)NC(=O)c4ccc(Br)cc43)cc2F)CC1`
< 4.30

Moving on to `O=C1NC(=O)c2ccc(Br)cc2/C1=C/NCc1cccc(O)c1`
< 4.30

Moving on to `O=C1NC(=O)c2ccccc2/C1=C/Nc1ccc(CCN2CCCC2)cc1`
< 4.55

Moving on to `COc1ccc(CN/C=C2\C(=O)NC(=O)c3ccc(-c4ccoc4)cc32)cc1O`
5.60

Moving on to `COC(=O)Oc1ccc(CN/C=C2\C(=O)NC(=O)c3ccc(Br)cc32)cc1OC(=O)OC`
4.39

Moving on to `C=CCOc1ccc(CN/C=C2\C(=O)NC(=O)c3ccc(Br)cc32)cc1O`
< 4.30

Moving on to `C/C=C/C(=O)Nc1ccc(CN/C=C2\C(=O)NC(=O)c3ccc(I)cc32)cc1OC(=O)/C=C/C`
< 4.30

Moving on to O=C1NC(=O)c2ccc(Br)cc2/C1=C/Nc1ccc(CN2CCC[C@H]2CO)cc1 (stereo in doubt)
< 4.30
